Values from the kinase profiling compilation of Christmann-Franck et al. (2016)

So I've got a bunch of molecules here, and I need their kinase still bound, per cent of control values.
study_target: CDK18 (human) (UniProt Q07002)
Sequence (Q07002 whole entry, looked up): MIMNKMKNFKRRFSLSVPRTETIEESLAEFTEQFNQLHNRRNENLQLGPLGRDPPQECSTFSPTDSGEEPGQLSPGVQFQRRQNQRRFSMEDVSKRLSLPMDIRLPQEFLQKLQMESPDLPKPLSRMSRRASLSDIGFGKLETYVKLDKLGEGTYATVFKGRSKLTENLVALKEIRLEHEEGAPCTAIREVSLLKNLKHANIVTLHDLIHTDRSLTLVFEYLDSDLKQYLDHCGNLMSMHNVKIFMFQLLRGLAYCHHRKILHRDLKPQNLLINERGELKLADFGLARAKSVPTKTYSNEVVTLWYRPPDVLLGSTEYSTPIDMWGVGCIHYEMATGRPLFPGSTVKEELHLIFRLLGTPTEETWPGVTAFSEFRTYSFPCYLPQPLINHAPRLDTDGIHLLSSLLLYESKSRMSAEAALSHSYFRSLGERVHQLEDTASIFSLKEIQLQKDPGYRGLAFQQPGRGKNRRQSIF
assay_protocol: KINOMEscan competition binding
measurement_context: compound 10.0 µM
One number for each entry, in %.

Examples with their reported kinase still bound, per cent of control follow.
[
  {
    "structure_smiles": "COc1cc(N2CCN(C)CC2)ccc1Nc1ncc2c(n1)N(C)c1sccc1C(=O)N2C",
    "study_target": "CDK18 (human) (UniProt Q07002)",
    "kinase still bound, per cent of control (%)": 76
  },
  {
    "structure_smiles": "CN1C(=O)c2ccccc2N(C)c2nc(NS(=O)(=O)c3ccc(N)cc3)ncc21",
    "study_target": "CDK18 (human) (UniProt Q07002)",
    "kinase still bound, per cent of control (%)": 100
  },
  {
    "structure_smiles": "CN1C(=O)c2ccccc2N(C)c2nc(Nc3ccc(N4CCC(O)CC4)cc3)ncc21",
    "study_target": "CDK18 (human) (UniProt Q07002)",
    "kinase still bound, per cent of control (%)": 100
  },
  {
    "structure_smiles": "COc1cc(N2CCC(O)CC2)ccc1Nc1ncc2c(n1)N1CCc3cccc(c31)C(=O)N2C",
    "study_target": "CDK18 (human) (UniProt Q07002)",
    "kinase still bound, per cent of control (%)": 100
  },
  {
    "structure_smiles": "COc1cc(N2CCN(C)CC2)ccc1Nc1ncc2c(n1)N(C)c1ccccc1N(C)C2=O",
    "study_target": "CDK18 (human) (UniProt Q07002)",
    "kinase still bound, per cent of control (%)": 100
  },
  {
    "structure_smiles": "CN1CCN(c2ccc(C(=O)Nc3ncc4c(n3)N(C)c3ccccc3C(=O)N4C)cc2)CC1",
    "study_target": "CDK18 (human) (UniProt Q07002)",
    "kinase still bound, per cent of control (%)": 100
  },
  {
    "structure_smiles": "COc1cc(N2CCN(C)CC2)ccc1Nc1ncc2c(n1)Nc1ccccc1NC2=O",
    "study_target": "CDK18 (human) (UniProt Q07002)",
    "kinase still bound, per cent of control (%)": 86
  }
]

Now look at this one.
Enquiry: Find the measured kinase still bound, per cent of control of O=C1NC(=O)/C(=C/c2c[nH]c(=O)c(-c3ccc(N4CCNCC4)nc3)c2)S1 and report it.
Return: 82
